Listed here: items and their measured pIC50.
target: human recombinant H-PGDS (Homo sapiens); experiment: Slightly modified h-PGDS TBA enzyme assay (Examples 529, 565, 566, 574-588 and 591); assay type: biochemical; settings: slightly modified assay (Examples 529, 565, 566, 574-588 and 591); 1:40,000 human recombinant H-PGDS
Sequence (O60760 whole entry): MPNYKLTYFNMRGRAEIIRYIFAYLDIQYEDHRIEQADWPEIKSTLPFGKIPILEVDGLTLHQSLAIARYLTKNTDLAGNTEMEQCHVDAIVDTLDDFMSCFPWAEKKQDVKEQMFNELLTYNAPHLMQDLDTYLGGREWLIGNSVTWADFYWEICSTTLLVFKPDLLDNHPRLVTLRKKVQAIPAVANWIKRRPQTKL
pIC50: −log10 of the molar value.

- MOLECULE: "O=C(NCCN1CCC(O)CC1)c1ccc(-c2cccc(F)c2)nc1"
  pIC50: 6.79
- MOLECULE: "CC(C)(C)OC(=O)N1[C@@H]2CC[C@H]1C[C@H](NC(=O)c1ccc(-c3cccc(F)c3)nc1)C2"
  pIC50: 7.81
- MOLECULE: "CC(C)S(=O)(=O)N1[C@@H]2CC[C@H]1C[C@H](NC(=O)c1ccc(-c3cccc(F)c3)nc1)C2"
  pIC50: 8.42
- MOLECULE: "CC(C)OCCNCCNC(=O)c1ccc(-c2cccc(F)c2)nc1"
  pIC50: 6.56
- MOLECULE: "O=C(N[C@H]1[C@@H]2CN(c3ncccn3)C[C@@H]21)c1ccc(-c2cccc(F)c2)nc1"
  pIC50: 7.95
- MOLECULE: "CCCNC(=O)c1ccc(-c2cccc(F)c2)nc1 [Example 576, 6-(3-Fluorophenyl)-N-propylnicotinamide]"
  pIC50: 7.03
- MOLECULE: "O=C(N[C@@H]1C[C@H]2CC[C@@H](C1)N2)c1ccc(-c2cccc(F)c2)nc1"
  pIC50: 7.41
- MOLECULE: "O=C(O)CCNC(=O)c1ccc(-c2cccc(F)c2)nc1"
  pIC50: 6.71
- MOLECULE: "CC(=O)N1CCC(CNC(=O)c2ccc(-c3cc(F)ccc3O)nc2)CC1"
  pIC50: 6.94
- MOLECULE: "CCNC(=O)c1ccc(-c2cccc(F)c2)nc1 [Example 580, N-Ethyl-6-(3-fluorophenyl)nicotinamide]"
  pIC50: 6.65

* * *

target: human recombinant H-PGDS (Homo sapiens); assay: Fluorescence Intensity h-PGDS TBA Enzyme Assay; type: biochemical; conditions: 1:175,000 human recombinant H-PGDS, highest inhibitor concentration typically 1 μM
pIC50: −log10 of the molar value.
The compounds listed here are annotated with their pIC50.
MEASUREMENT_NAME: pIC50

- COMPOUND: "O=C(Nc1ccc(F)cc1)c1ccc(-c2ccccc2)nc1 [Example 521, N-(4-Fluorophenyl)-6-phenylnicotinamide]"
  COMPARATOR: "="
  RESULT_NUMBER: 8.32
- COMPOUND: "COC(=O)[C@@H](NC(=O)c1ccc(-c2cccc(F)c2)nc1)[C@@H](C)O"
  COMPARATOR: "="
  RESULT_NUMBER: 6.42
- COMPOUND: "CC(C)[C@H](N)C(=O)NC(=O)c1ccc(-c2ccccc2)nc1 [Example 512, 6-Phenyl-N-L-valylnicotinamide]"
  COMPARATOR: "="
  RESULT_NUMBER: 6.44
- COMPOUND: "CC(CCCC(C)(C)O)NC(=O)c1ccc(-c2cccc(F)c2)nc1 (stereo not drawn)"
  COMPARATOR: "="
  RESULT_NUMBER: 7.69
- COMPOUND: "Cc1c(C(C)NC(=O)c2ccc(-c3cccc(F)c3)nc2)cnn1C (stereo not drawn)"
  COMPARATOR: "="
  RESULT_NUMBER: 7.62
- COMPOUND: "COc1ccc(CNC(=O)c2ccc(-c3ccccc3)nc2)cc1OC"
  COMPARATOR: "="
  RESULT_NUMBER: 8.27
- COMPOUND: "COc1cccc(-c2ccc(C(=O)Nc3ccccc3)cn2)c1"
  COMPARATOR: "="
  RESULT_NUMBER: 7.27
- COMPOUND: "CCc1csc(CNC(=O)c2ccc(-c3cccc(F)c3)nc2)n1"
  COMPARATOR: "="
  RESULT_NUMBER: 8.26
- COMPOUND: "O=C(NCCc1nc(CN2CCOCC2)no1)c1ccc(-c2cccc(F)c2)nc1"
  COMPARATOR: "="
  RESULT_NUMBER: 7.29
- COMPOUND: "O=C(NCC1CCCOC1)c1ccc(-c2cccc(F)c2)nc1 (stereo not drawn)"
  COMPARATOR: "="
  RESULT_NUMBER: 8.15
- COMPOUND: "CCCOCCCNC(=O)c1ccc(-c2cc(F)cc(OC)c2)nc1"
  COMPARATOR: "="
  RESULT_NUMBER: 7.05
- COMPOUND: "C[C@@H](CNC(=O)c1ccc(-c2cccc(F)c2)nc1)NC(=O)OCc1ccccc1"
  COMPARATOR: "="
  RESULT_NUMBER: 7.47
- COMPOUND: "O=C(NCCN1CCCCC1=O)c1ccc(-c2cccc(F)c2)nc1"
  COMPARATOR: "="
  RESULT_NUMBER: 8.04
- COMPOUND: "COc1ccc(C(CNC(=O)c2ccc(-c3cccc(F)c3)nc2)N(C)C)cc1 (stereo not drawn)"
  COMPARATOR: "="
  RESULT_NUMBER: 6.90
- COMPOUND: "Cc1cccc(-c2ccc(C(=O)NCc3nnc(-c4cccnc4)[nH]3)cn2)c1"
  COMPARATOR: "="
  RESULT_NUMBER: 8.04
- COMPOUND: "COc1cccc(CNC(=O)c2ccc(-c3cccc(F)c3)nc2)c1OC"
  COMPARATOR: "="
  RESULT_NUMBER: 8.57
- COMPOUND: "Cc1cnc(CN2C(=O)CCC2CCNC(=O)c2ccc(-c3cccc(F)c3)nc2)cn1 (stereo not drawn)"
  COMPARATOR: "="
  RESULT_NUMBER: 7.70
- COMPOUND: "COc1cccc(-c2ccc(C(=O)NCCc3ccncc3)cn2)c1"
  COMPARATOR: "="
  RESULT_NUMBER: 6.51
- COMPOUND: "O=C(NCc1ccc(-n2cncn2)cc1)c1ccc(-c2cccc(F)c2)nc1"
  COMPARATOR: "="
  RESULT_NUMBER: 7.64
- COMPOUND: "O=C(NCCc1nccs1)c1ccc(-c2cccc(F)c2)nc1"
  COMPARATOR: "="
  RESULT_NUMBER: 7.90
- COMPOUND: "O=C(NCCCN1CCCC1=O)c1ccc(-c2ccccc2)nc1"
  COMPARATOR: "="
  RESULT_NUMBER: 8.17
- COMPOUND: "COc1cccc([C@H](C)NC(=O)c2ccc(-c3cccc(F)c3)nc2)c1"
  COMPARATOR: "="
  RESULT_NUMBER: 8.21
- COMPOUND: "COC(=O)[C@H](C)NC(=O)c1ccc(-c2cccc(C)c2)nc1"
  COMPARATOR: "="
  RESULT_NUMBER: 7.05
- COMPOUND: "CCOC(=O)CC(NC(=O)c1ccc(-c2ccccc2)nc1)c1ccccc1 (stereo not drawn)"
  COMPARATOR: "="
  RESULT_NUMBER: 7.61
- COMPOUND: "Cc1cccc(-c2ccc(C(=O)Nc3cccnc3)cn2)c1"
  COMPARATOR: "="
  RESULT_NUMBER: 7.94
- COMPOUND: "O=C(NCC1CCCCO1)c1ccc(-c2ccccc2)nc1 (stereo not drawn)"
  COMPARATOR: "="
  RESULT_NUMBER: 7.56
- COMPOUND: "NC(CC(=O)NC(=O)c1ccc(-c2ccccc2)nc1)C1CC1 (stereo not drawn)"
  COMPARATOR: "="
  RESULT_NUMBER: 7.41
- COMPOUND: "COc1cccc(-c2ccc(C(=O)NCc3ccc(OC)c(OC)c3)cn2)c1"
  COMPARATOR: "="
  RESULT_NUMBER: 6.75
- COMPOUND: "Cc1noc(CCNC(=O)c2ccc(-c3cccc(F)c3)nc2)n1"
  COMPARATOR: "="
  RESULT_NUMBER: 7.35
- COMPOUND: "CN1CCCCC1CNC(=O)c1ccc(-c2cccc(F)c2)nc1 (stereo not drawn)"
  COMPARATOR: "="
  RESULT_NUMBER: 6.82
- COMPOUND: "CC(C)NC(=O)c1ccc(-c2ccc(F)cc2)nc1"
  COMPARATOR: "≤"
  RESULT_NUMBER: 6.00
- COMPOUND: "CCOCCCNC(=O)c1ccc(-c2cccc(F)c2)nc1"
  COMPARATOR: "="
  RESULT_NUMBER: 7.83
- COMPOUND: "O=C(NCC1CN(Cc2ccccn2)C(=O)CO1)c1ccc(-c2cccc(F)c2)nc1 (stereo not drawn)"
  COMPARATOR: "="
  RESULT_NUMBER: 7.50
- COMPOUND: "O=C(NC1COC2(CCN(c3nc4ccccc4[nH]3)CC2)C1)c1ccc(-c2cccc(F)c2)nc1 (stereo not drawn)"
  COMPARATOR: "="
  RESULT_NUMBER: 8.54
- COMPOUND: "O=C(NCCc1cccs1)c1ccc(-c2cccc(F)c2)nc1"
  COMPARATOR: "="
  RESULT_NUMBER: 7.93
- COMPOUND: "O=C(NCc1ccc[nH]c1=O)c1ccc(-c2cccc(F)c2)nc1"
  COMPARATOR: "="
  RESULT_NUMBER: 7.69
